FYI, the data here is from the supplement of paper PMC10065799.

- experimental-target: EPHB1 (UniProt P54762)
- Sequence (P54762 whole entry, looked up): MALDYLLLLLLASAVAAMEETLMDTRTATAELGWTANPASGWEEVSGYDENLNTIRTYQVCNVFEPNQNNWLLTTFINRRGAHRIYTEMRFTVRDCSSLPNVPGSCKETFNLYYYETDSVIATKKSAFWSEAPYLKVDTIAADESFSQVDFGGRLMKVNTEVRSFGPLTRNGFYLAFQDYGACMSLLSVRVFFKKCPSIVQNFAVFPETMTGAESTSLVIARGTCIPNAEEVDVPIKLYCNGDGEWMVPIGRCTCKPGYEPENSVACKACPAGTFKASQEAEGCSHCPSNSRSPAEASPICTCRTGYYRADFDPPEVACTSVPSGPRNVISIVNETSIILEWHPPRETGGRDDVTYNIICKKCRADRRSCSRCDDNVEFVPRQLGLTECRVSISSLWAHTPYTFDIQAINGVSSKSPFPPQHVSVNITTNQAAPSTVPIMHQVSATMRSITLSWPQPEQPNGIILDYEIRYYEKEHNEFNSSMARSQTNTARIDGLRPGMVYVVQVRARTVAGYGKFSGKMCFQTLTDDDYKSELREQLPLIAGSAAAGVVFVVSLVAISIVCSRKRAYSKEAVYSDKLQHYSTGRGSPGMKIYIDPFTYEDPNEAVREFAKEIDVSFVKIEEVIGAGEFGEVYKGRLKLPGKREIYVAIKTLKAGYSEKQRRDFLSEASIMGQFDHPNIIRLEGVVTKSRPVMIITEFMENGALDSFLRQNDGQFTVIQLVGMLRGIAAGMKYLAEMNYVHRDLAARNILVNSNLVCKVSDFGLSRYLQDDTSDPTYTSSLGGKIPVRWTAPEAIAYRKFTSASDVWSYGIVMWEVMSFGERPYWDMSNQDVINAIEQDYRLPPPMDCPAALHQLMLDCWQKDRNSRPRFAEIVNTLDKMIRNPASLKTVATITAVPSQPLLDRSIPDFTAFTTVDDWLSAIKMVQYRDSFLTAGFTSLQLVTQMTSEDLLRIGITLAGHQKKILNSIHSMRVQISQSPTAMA
- experiment-summary: phosphorylation enrichment, bacterial display (enrichment ratio); higher = better substrate or ligand; peptides without Tyr show the background;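 further: 11-residue human phosphosite peptides and single-mutation variants displayed on the E. coli surface, counted by deep sequencing, each peptide's frequency after selection divided by its frequency in the unselected input library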;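 further: frequency after pTyr selection over input frequency; kinase dosed for 20-30% of maximal phosphorylation in three min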
Here, each record is paired with measured phosphorylation enrichment data.
Reply with just the number.

Quick one: phosphorylation enrichment for GNHVSYFQSDG [CACNA1C_Y1757_YF] ? 0.373

====

- Test system: c-Src
- experiment-summary: phosphorylation enrichment, bacterial display (enrichment ratio); higher = better substrate or ligand; peptides without Tyr show the background
Would you please tag the item label 1 when its phosphorylation enrichment is 0.6 or above, and label 0 when it is below?

Example cases with answers are listed next.
- sequence-input: "EHEALYLEADL [CENPF_Y1920]"
  qualitative-label: "label 1"
- sequence-input: "IPTPAYQSLPA [PDCD6IP_Y727_S730L]"
  qualitative-label: "label 0"
- sequence-input: "GSRGKYSSGFC [ATM_Y332_R337C]"
  qualitative-label: "label 0"

Does phosphorylation enrichment meet or surpass 0.6 for LSPNMYNSKLW [TARSL2_Y457] ? label 0

Likewise for VQVAYYTMMMN [SPATA17_Y84] ? label 1

Also PYADPYYDYEI [ZC3H18_Y371] ? label 1

// repeat for PLGVLYKVKVY [PTS_Y128_V124L] and report label 0

Try this sequence too: RQSTLYSFFPT [MSH6_Y8_K13T] label 1

Now consider PLGPLYASSNT [INSR_Y992_P997T] . label 1

Note, next up: KKIMGYSIRTI [IDS_Y490_I485K] label 0

# iterate: EWRSPYGLTPR [GRIN3B_Y601] label 1

Now try YGMQLYQKYMH [GRB14_Y347_N349K] . label 1

What do you get for ATPKGYELDAS [OTC_Y223_P225L] ? label 0

Now consider NVLPEYKLQAP [KCNH2_Y388_D383N] . label 0

Field entry: RFGKVYKAHLF [ROR2_Y488_G490A] label 1

Then what about the sequence FRDALYKFMVD [PHEX_Y250_YF] ? label 0

And what about the sequence CTTILYNFMCN [TP53_Y234_H233L_YF] ? label 1

Same question, ITQRAYRRHLL [SCN1A_Y1926_I1922T] this time label 1

Ok, now PDSVDYRKKGY [CTSK_Y121] label 1

Continue with KGEDFYYVTCH [FHL1_Y149_C150Y] label 1

Follow-up item: LVRAFYCERRW [CARD11_Y970_R975W] label 0

Repeat for the following sequence: KLQQWYREHRS [GPI_Y17] label 0

Now try AKKKMYSLKTK [AGXT_Y231_R233L] . label 0

====

- experimental-target: Jak2 (UniProt O60674)
- Sequence (O60674 whole entry, looked up): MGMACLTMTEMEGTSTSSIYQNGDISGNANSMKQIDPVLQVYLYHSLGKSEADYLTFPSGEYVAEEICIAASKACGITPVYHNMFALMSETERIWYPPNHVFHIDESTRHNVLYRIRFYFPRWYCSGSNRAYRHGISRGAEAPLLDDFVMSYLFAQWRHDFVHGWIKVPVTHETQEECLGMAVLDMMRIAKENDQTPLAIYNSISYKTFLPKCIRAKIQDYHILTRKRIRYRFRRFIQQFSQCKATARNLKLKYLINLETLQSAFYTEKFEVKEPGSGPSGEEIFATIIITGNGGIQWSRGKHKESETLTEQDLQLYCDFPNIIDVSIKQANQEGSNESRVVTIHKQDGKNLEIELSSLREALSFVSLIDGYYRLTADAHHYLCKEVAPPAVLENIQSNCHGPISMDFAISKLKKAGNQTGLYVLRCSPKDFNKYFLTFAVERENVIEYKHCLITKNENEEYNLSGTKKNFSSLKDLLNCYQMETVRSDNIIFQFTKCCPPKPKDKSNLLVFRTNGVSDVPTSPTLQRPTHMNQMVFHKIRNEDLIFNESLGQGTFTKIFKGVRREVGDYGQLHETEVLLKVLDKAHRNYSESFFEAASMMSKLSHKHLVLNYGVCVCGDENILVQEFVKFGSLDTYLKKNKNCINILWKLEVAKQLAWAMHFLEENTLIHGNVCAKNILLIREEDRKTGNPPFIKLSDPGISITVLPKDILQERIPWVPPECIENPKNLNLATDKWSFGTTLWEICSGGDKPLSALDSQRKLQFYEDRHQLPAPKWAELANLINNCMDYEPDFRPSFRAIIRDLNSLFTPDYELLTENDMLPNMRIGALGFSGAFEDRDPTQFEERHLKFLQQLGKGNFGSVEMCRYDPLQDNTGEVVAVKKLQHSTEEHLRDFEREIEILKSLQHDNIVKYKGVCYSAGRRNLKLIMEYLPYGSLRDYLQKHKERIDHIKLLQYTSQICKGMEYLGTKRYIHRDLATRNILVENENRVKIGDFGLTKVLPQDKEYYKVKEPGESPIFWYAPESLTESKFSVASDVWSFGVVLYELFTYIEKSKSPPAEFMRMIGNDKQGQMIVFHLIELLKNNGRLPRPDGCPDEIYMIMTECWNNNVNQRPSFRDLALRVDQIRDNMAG
- experiment-summary: phosphorylation enrichment, bacterial display (enrichment ratio); higher = better substrate or ligand; peptides without Tyr show the background
Would you mind labelling by phosphorylation enrichment? At or over 0.9 is TRUE, under is FALSE.

Answered cases to consult:
- sequence-input: "SQPASYQRRLL [PPIG_Y320]"
  qualitative-label: "FALSE"
- sequence-input: "AKKKMYSLKTK [AGXT_Y231_R233L]"
  qualitative-label: "FALSE"
- sequence-input: "SKGYAYVHFDS [PABPC5_Y149]"
  qualitative-label: "TRUE"

Say whether QYPDIYAREEV [CRX_Y67_V66I] shows phosphorylation enrichment of 0.9 or more. TRUE

Could you do the same for ACVARYIFKRL [LPCAT3_Y348_W344C] , please? FALSE

====

The reader will find reported phosphorylation enrichment values listed item by item below.
- experimental-target: FGFR3 (UniProt P22607)
- Sequence (P22607 whole entry, looked up): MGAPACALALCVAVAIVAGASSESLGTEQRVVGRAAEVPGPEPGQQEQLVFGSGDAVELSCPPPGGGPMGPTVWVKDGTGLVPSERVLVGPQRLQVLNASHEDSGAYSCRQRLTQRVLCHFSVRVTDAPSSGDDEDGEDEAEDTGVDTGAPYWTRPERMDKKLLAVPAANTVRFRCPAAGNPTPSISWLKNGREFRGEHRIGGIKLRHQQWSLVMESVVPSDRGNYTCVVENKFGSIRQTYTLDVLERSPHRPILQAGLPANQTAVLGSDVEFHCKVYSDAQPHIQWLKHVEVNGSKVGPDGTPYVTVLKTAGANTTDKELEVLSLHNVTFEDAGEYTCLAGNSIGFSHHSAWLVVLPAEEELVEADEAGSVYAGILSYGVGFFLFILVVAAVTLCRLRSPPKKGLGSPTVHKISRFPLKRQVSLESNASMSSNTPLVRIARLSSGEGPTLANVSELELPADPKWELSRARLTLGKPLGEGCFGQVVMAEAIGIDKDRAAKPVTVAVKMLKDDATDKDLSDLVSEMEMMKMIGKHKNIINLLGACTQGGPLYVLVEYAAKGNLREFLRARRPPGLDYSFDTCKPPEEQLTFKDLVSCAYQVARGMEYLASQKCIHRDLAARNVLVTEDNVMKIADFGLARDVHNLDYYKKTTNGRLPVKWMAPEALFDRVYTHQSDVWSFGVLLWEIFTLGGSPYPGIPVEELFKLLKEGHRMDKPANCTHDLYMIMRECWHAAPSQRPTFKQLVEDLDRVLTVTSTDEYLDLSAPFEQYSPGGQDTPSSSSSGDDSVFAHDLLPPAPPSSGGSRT
- experiment-summary: phosphorylation enrichment, bacterial display (enrichment ratio); higher = better substrate or ligand; peptides without Tyr show the background
Reply with just the number.

Worked cases, phosphorylation enrichment given:
- sequence-input: "LGGAMYYLEAE [PKHD1_Y452]"
  experimental-target: "FGFR3 (UniProt P22607)"
  phosphorylation enrichment: 2.46
- sequence-input: "EPVSDYINANV [PTPN11_Y304_I309V]"
  experimental-target: "FGFR3 (UniProt P22607)"
  phosphorylation enrichment: 0.585
- sequence-input: "RGEAVYSRDCV [XPC_Y676]"
  experimental-target: "FGFR3 (UniProt P22607)"
  phosphorylation enrichment: 1.01
- sequence-input: "APVEDYGGGGG [B4GALT6_Y382_I379V]"
  experimental-target: "FGFR3 (UniProt P22607)"
  phosphorylation enrichment: 0.641
- sequence-input: "IHHIDYFKETT [FGFR1_Y653_K656E_YF]"
  experimental-target: "FGFR3 (UniProt P22607)"
  phosphorylation enrichment: 0.567

# returns recorded phosphorylation enrichment (system: FGFR3 (UniProt P22607)) for SLGKGYSDGGC [MC4R_Y35] 0.585

Next sequence up: IHFPPYTDWNQ [ALDH3B2_Y365_YF] 0.685

====

- experimental-target: Fes (UniProt P07332)
- Sequence (P07332 whole entry, looked up): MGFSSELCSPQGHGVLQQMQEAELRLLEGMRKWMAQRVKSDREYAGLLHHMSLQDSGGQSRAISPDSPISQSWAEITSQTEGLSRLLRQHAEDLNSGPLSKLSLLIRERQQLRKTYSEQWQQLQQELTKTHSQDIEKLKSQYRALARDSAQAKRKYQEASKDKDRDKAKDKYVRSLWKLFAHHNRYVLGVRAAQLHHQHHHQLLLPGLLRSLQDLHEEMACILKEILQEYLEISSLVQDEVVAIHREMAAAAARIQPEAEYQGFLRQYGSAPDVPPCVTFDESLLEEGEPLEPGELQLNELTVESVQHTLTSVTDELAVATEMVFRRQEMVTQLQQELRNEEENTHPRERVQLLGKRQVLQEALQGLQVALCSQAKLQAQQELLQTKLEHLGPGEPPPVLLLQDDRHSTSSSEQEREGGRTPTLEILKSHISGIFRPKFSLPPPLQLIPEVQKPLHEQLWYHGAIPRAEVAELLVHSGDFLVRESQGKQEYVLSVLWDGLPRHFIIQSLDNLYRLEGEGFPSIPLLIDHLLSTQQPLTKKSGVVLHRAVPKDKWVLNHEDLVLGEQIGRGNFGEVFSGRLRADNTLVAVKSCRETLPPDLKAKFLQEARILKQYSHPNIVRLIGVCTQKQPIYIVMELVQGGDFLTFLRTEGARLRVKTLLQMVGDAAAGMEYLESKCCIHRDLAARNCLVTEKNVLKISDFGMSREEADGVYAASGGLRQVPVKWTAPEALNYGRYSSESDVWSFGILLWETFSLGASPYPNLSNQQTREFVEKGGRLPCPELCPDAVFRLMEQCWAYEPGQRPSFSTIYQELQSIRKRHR
- experiment-summary: phosphorylation enrichment, bacterial display (enrichment ratio); higher = better substrate or ligand; peptides without Tyr show the background
measured-attribute: phosphorylation enrichment
Respond using a number only.

Look over these answered cases.
- sequence-input: "EDASEYFENFI [PARP4_Y214_F215Y_YF]"
  phosphorylation enrichment: 1.47
- sequence-input: "SVVVPYELPEV [TP53_Y220_P222L]"
  phosphorylation enrichment: 1.29
- sequence-input: "SIKDKYVMALY [KCNH2_Y611_T613M]"
  phosphorylation enrichment: 0.734
- sequence-input: "VSYGEYRYRSV [CFTR_Y515_D513G]"
  phosphorylation enrichment: 0.824
- sequence-input: "LGNFNYEQRGA [API5_Y497]"
  phosphorylation enrichment: 0.986
- sequence-input: "QSSEGYDLGDR [KIAA1210_Y564_G565D]"
  phosphorylation enrichment: 1.43

Which phosphorylation enrichment value is on record for QRVLLYVQRET [GRHL3_Y518_R520Q] ? 1.89

What would you report for PSAELYSYALP [PDGFRB_Y716_N718Y] ? 1.92

Thanks! And LRGEDYGFSVD [PRKCI_Y430] ? 1.35

Same again, this time with IMAFFYMCDRA [CASD1_Y382_YF] 1.63

Now give it for LAARFYNWVCF [FLT4_Y1231_S1235C_YF] too. 2.8

What do you get for SNPAFYVLEGV [INPPL1_Y987_N982S_YF] ? 1.06

Now the same for KKHIPYREHKS [CSNK1G1_Y205] 2.94

====

- System: Fer (mouse)
- experiment-summary: phosphorylation enrichment, bacterial display (enrichment ratio); higher = better substrate or ligand; peptides without Tyr show the background
measured-attribute: phosphorylation enrichment
// response body must contain only the number

- sequence-input: "GDEVEYMSVSF [GCLC_Y53_L55S]"
  quantitative-result: 0.972
- sequence-input: "IGEGTSGVVFK [CDK2_Y15_Y15S_YF]"
  quantitative-result: 0.382
- sequence-input: "VHFLVYHHHHH [CACNA1H_Y519_H516Y_YF]"
  quantitative-result: 0.493

Then there is this sequence:
What does the record list as phosphorylation enrichment for KGSEGYLAATY [NF1_Y2503] ? 0.457

====

- experimental-target: Jak2 (UniProt O60674)
- experiment-summary: phosphorylation enrichment, bacterial display (enrichment ratio); higher = better substrate or ligand; peptides without Tyr show the background
measured-attribute: phosphorylation enrichment
Response field accepts a number only; no unit should be typed.

- sequence-input: "TDLAFYLVRKG [ASL_Y376_YF]"
  phosphorylation enrichment: 0.946
- sequence-input: "EFLQKYKGFKI [SYNE1_Y6953_YF]"
  phosphorylation enrichment: 0.775
- sequence-input: "GREEFYVHYVG [KAT8_Y90]"
  phosphorylation enrichment: 1.02
- sequence-input: "FNSLPYQVPTS [CALCOCO2_Y358]"
  phosphorylation enrichment: 0.611

# get_value(readout='phosphorylation enrichment', item= GGSDRYGSLRP [MYLK_Y846] ) 0.716

SLMNQYVNKKF [RAB7A_Y28] ? 0.44

Next up: LGNFNYEQRGA [API5_Y497] 0.919

And EIIPFYGMSSF [FNDC3B_Y175_T179S_YF] ? 0.772

Quick one: FSPCDYQPCLA [TNS1_Y798_Y796C_YF] 1.05

Note, next up: HNQDGYSFPSR [LDLR_Y845_YF] 1.55

Try the sequence AMGPVYQAAAL [HYOU1_Y421_A419P] 0.615

Now consider FDDDDYDMDFV [BLM_Y296_T298M] . 0.945

Param item: KMTGRYEMFAR [UPB1_Y362_YF] 0.586

Okay, and KSFDMYSGDVM [FAM3D_Y122_A118S] ? 0.698
